// provenance: ChEMBL document CHEMBL3397036

# TARGET_SYSTEM: Cannabinoid receptor 1 (Rattus norvegicus)
# Sequence (P20272 whole entry): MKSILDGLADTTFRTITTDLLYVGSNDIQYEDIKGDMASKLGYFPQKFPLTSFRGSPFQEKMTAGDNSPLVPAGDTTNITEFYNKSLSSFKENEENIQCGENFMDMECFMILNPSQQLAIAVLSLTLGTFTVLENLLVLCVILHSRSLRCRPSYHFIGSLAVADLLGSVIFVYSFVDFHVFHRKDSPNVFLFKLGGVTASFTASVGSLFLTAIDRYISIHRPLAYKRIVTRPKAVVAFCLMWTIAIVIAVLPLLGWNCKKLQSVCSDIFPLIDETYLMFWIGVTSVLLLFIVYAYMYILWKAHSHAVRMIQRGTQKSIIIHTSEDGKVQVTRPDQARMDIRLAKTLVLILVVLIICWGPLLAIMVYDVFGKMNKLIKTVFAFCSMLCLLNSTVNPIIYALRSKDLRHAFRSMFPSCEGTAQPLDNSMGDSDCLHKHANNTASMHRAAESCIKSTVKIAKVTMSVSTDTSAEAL
# PROCEDURE_TEXT: Displacement of [3H]CP-55,940 from CB1 receptor in rat brain homogenates in presence of phenylmethanesulfonyl fluoride
# Format: tissue-based
List of Ki values.

{"COMPOUND_STRUCTURE_STRING": "C[C@@H](CO)NC(=O)CCC/C=C\\C[C@H]1C(=O)C[C@@H](O)[C@@H]1/C=C/[C@@H](O)CCc1ccccc1", "MEASUREMENT_QUALIFIER": "=", "Ki, nM": 950}
{"COMPOUND_STRUCTURE_STRING": "O=C(CCC/C=C\\C[C@H]1C(=O)C[C@@H](O)[C@@H]1/C=C/[C@@H](O)CCc1ccccc1)NCCO", "MEASUREMENT_QUALIFIER": ">", "Ki, nM": 1000}
{"COMPOUND_STRUCTURE_STRING": "O=C(CCC/C=C\\C[C@H]1C(=O)C[C@@H](O)[C@@H]1/C=C/[C@H](O)CCc1ccccc1)NCCO", "MEASUREMENT_QUALIFIER": "=", "Ki, nM": 740}
{"COMPOUND_STRUCTURE_STRING": "O=C(CCC/C=C\\C[C@H]1C(=O)C[C@@H](O)[C@@H]1/C=C/[C@@H](O)CCc1ccccc1)NCCCO", "MEASUREMENT_QUALIFIER": ">", "Ki, nM": 1000}
{"COMPOUND_STRUCTURE_STRING": "O=C(CCC/C=C\\C[C@H]1C(=O)C[C@@H](O)[C@@H]1/C=C/[C@@H](O)CCc1ccc(I)cc1)NCCO", "MEASUREMENT_QUALIFIER": "=", "Ki, nM": 620}
{"COMPOUND_STRUCTURE_STRING": "C[C@H](CO)NC(=O)CCC/C=C\\C[C@H]1C(=O)C[C@@H](O)[C@@H]1/C=C/[C@@H](O)CCc1ccccc1", "MEASUREMENT_QUALIFIER": "=", "Ki, nM": 730}

---

# TARGET_SYSTEM: UniProt Q99685
# Sequence (Q99685 whole entry): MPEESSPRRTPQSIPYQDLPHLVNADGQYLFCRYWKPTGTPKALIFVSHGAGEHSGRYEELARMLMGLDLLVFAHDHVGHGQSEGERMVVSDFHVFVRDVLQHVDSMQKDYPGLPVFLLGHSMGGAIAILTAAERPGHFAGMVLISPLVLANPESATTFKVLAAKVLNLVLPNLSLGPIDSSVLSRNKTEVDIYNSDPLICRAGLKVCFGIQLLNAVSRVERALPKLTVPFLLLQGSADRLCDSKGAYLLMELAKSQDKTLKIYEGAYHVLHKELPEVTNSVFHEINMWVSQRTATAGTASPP
# PROCEDURE_TEXT: Inhibition of human MGL

{"COMPOUND_STRUCTURE_STRING": "O=C(CCC/C=C\\C[C@H]1C(=O)C[C@@H](O)[C@@H]1/C=C/[C@@H](O)CCc1ccccc1)NCCO", "IC50 (µM)": 100}

---

Entries and their measured pIC50 follow.
Sequence of the target: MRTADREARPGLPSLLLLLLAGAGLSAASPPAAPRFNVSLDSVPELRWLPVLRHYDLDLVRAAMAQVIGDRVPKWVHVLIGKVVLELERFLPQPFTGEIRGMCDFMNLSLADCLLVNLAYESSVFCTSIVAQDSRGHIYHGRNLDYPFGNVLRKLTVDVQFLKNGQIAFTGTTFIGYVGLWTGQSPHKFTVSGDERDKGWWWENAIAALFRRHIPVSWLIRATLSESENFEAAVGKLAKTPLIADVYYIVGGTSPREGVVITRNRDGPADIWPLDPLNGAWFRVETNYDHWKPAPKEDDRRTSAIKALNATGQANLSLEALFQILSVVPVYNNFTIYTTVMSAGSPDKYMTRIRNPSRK
pIC50: −log10 of the molar value.

{"COMPOUND_STRUCTURE_STRING": "O=C(CCC/C=C\\C[C@H]1C(=O)C[C@@H](O)[C@@H]1/C=C/[C@@H](O)CCc1ccccc1)NCCO", "pIC50": "< 4.00"}
{"COMPOUND_STRUCTURE_STRING": "O=C(CCC/C=C\\C[C@H]1C(=O)C[C@@H](O)[C@@H]1/C=C/[C@H](O)CCc1ccccc1)NCCO", "pIC50": "< 4.00"}
{"COMPOUND_STRUCTURE_STRING": "O=C(CCC/C=C\\C[C@H]1C(=O)C[C@@H](O)[C@@H]1/C=C/[C@@H](O)CCc1ccc(I)cc1)NCCO", "pIC50": "< 4.00"}

---

# TARGET_SYSTEM: Cannabinoid receptor 2 (Mus musculus, UniProt P47936)
# Sequence (P47936 whole entry): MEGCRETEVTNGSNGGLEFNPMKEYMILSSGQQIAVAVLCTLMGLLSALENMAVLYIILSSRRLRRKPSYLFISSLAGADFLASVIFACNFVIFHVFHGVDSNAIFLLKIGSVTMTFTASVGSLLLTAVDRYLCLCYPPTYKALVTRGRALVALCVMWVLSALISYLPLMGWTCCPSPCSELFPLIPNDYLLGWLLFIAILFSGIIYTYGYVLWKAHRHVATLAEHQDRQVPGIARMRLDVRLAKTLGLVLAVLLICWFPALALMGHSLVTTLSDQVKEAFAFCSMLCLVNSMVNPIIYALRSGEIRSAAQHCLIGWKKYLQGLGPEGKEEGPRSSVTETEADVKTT

{"COMPOUND_STRUCTURE_STRING": "O=C(CCC/C=C\\C[C@H]1C(=O)C[C@@H](O)[C@@H]1/C=C/[C@@H](O)CCc1ccc(I)cc1)NCCO", "Ki": "> 1 µM"}

---

# TARGET_SYSTEM: Cannabinoid receptor 2 (Homo sapiens, UniProt P34972)
# Sequence (P34972 whole entry): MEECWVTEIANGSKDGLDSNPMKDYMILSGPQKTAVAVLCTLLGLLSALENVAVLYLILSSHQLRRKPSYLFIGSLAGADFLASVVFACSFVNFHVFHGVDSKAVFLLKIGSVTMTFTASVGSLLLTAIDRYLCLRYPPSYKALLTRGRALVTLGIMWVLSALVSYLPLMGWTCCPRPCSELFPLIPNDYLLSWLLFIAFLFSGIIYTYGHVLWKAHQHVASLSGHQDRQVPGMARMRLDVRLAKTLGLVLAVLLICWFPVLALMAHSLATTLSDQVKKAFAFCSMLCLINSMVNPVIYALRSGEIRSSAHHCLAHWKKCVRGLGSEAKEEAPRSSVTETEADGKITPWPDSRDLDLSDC
# PROCEDURE_TEXT: Displacement of [3H]CP-55,940 from human CB2 receptor expressed in HEK293 cells
# Type: cell-based

{"COMPOUND_STRUCTURE_STRING": "C[C@@H](CO)NC(=O)CCC/C=C\\C[C@H]1C(=O)C[C@@H](O)[C@@H]1/C=C/[C@@H](O)CCc1ccccc1", "Ki": "> 1 µM"}
{"COMPOUND_STRUCTURE_STRING": "O=C(CCC/C=C\\C[C@H]1C(=O)C[C@@H](O)[C@@H]1/C=C/[C@@H](O)CCc1ccccc1)NCCO", "Ki": "> 1 µM"}
{"COMPOUND_STRUCTURE_STRING": "C[C@H](CO)NC(=O)CCC/C=C\\C[C@H]1C(=O)C[C@@H](O)[C@@H]1/C=C/[C@@H](O)CCc1ccccc1", "Ki": "> 1 µM"}

---

# TARGET_SYSTEM: Fatty-acid amide hydrolase 1 (Homo sapiens)
# Sequence (O00519 whole entry): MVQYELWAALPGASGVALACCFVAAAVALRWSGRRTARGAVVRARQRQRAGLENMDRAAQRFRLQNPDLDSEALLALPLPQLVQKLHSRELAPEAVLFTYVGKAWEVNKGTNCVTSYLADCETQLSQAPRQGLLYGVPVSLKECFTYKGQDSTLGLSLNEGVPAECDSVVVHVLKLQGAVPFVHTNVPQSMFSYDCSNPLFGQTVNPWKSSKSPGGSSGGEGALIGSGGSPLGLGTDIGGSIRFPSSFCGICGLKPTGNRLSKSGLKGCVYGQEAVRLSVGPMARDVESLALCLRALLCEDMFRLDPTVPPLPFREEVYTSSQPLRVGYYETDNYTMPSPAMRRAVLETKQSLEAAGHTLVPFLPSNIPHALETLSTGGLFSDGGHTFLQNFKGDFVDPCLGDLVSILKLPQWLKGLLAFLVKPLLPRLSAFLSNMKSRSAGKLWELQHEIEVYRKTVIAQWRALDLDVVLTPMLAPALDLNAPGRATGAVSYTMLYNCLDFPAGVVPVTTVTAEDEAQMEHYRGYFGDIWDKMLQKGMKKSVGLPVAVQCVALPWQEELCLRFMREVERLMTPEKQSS
# PROCEDURE_TEXT: Inhibition of human FAAH

{"COMPOUND_STRUCTURE_STRING": "O=C(CCC/C=C\\C[C@H]1C(=O)C[C@@H](O)[C@@H]1/C=C/[C@@H](O)CCc1ccccc1)NCCCO", "TARGET_SYSTEM": "Fatty-acid amide hydrolase 1 (Homo sapiens)", "IC50": "> 100 µM"}

---

This section presents compounds with their documented Ki values.
# TARGET_SYSTEM: UniProtKB P20272
# PROCEDURE_TEXT: Displacement of [3H]CP-55,940 from CB1 receptor in rat brain homogenates in absence of phenylmethanesulfonyl fluoride
# Type: tissue-based

{"COMPOUND_STRUCTURE_STRING": "O=C(CCC/C=C\\C[C@H]1C(=O)C[C@@H](O)[C@@H]1/C=C/[C@@H](O)CCc1ccccc1)NCCO", "TARGET_SYSTEM": "UniProtKB P20272", "Ki": "> 1000 nM"}
{"COMPOUND_STRUCTURE_STRING": "C[C@@H](CO)NC(=O)CCC/C=C\\C[C@H]1C(=O)C[C@@H](O)[C@@H]1/C=C/[C@@H](O)CCc1ccccc1", "TARGET_SYSTEM": "UniProtKB P20272", "Ki": "> 1000 nM"}
{"COMPOUND_STRUCTURE_STRING": "O=C(CCC/C=C\\C[C@H]1C(=O)C[C@@H](O)[C@@H]1/C=C/[C@@H](O)CCc1ccccc1)NCCCO", "TARGET_SYSTEM": "UniProtKB P20272", "Ki": "> 1000 nM"}
